target: C3a anaphylatoxin chemotactic receptor (Homo sapiens, UniProt Q16581); assay: Displacement of 125I-C3a from recombinant human C3aR expressed in HEK293 cell membranes after 3 hrs by scintillation proximity assay
Sequence (Q16581 whole entry): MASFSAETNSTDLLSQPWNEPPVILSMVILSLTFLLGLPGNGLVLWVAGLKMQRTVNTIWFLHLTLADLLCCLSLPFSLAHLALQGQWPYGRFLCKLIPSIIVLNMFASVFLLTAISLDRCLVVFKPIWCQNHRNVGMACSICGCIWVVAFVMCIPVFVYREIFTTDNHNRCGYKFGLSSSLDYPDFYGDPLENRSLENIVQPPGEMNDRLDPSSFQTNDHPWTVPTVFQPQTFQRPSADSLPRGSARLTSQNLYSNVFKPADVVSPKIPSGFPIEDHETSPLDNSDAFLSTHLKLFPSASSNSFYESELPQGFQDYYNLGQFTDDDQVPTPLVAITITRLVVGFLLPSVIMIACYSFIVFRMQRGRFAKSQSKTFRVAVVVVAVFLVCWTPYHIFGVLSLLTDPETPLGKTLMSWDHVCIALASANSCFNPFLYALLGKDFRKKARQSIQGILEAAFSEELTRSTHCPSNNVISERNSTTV
value-kind: IC50 (nM)
Numeric only. Scale: nM

Ask: Name the reported IC50 value associated with the molecule N=C(N)NCCC[C@H](NC(=O)c1cccn(Cc2ccccc2Br)c1=O)C(=O)O
Result: 50

###

target: Complement C2 (Homo sapiens); assay: Inhibition of human C2-mediated C3 processing after 24 hrs by SDS-PAGE
Sequence (P06681 whole entry): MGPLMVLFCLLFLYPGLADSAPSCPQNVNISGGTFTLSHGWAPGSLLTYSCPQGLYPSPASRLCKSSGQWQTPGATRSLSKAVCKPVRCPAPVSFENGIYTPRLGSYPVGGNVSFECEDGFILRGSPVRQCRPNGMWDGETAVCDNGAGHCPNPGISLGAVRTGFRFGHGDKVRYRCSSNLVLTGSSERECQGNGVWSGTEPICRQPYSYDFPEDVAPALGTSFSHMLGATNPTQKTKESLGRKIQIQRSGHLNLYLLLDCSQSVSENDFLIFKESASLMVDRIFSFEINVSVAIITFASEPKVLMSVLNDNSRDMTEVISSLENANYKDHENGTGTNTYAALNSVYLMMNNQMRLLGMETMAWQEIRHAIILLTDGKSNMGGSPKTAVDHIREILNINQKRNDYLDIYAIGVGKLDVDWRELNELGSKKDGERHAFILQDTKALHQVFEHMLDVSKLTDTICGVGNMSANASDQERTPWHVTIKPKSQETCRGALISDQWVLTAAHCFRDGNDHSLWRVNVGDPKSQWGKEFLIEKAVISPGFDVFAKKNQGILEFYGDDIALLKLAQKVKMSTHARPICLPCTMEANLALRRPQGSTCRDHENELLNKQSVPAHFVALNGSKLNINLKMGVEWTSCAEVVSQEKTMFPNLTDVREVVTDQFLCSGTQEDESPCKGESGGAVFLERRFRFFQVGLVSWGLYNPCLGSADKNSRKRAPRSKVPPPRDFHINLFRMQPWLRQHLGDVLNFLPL
Peptide text beside a SMILES is read from it.
value-kind: IC50

Ask: Name the reported IC50 value associated with the compound CC(=O)N[C@@H](CCCNC(=N)N)C(=O)N[C@@H](CC(C)C)C(=O)N[C@@H](CC(C)C)C(=O)N[C@@H](CC(C)C)C(=O)N[C@@H](C)C(=O)N[C@H](C=O)CCCNC(=N)N (Ac-RLLLAR-aldehyde)
Result: 500 to 1000 nM
